These entries and their values trace back to the supplement of paper PMC6555819.

# Test system: PXR:RXRa (NR concentration 270 nM, RXRa partner concentration 90 nM)
# Assay: PBM binding z-score (relative to random genomic background probes); higher = stronger binding; sequences stand for … in GC…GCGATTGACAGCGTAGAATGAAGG
Exercise: state measured PBM binding z-score for each of the sequences provided.
Give bare numbers.

Below: 5 sequences and their reported PBM binding z-score.
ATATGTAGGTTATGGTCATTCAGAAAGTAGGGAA: 0.998
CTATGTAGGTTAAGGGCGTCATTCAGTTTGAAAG: 0.377
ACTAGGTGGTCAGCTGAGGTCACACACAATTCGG: 5.62
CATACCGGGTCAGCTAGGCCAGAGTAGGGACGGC: 1.05
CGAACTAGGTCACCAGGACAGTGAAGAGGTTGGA: 1.37

Ask: What value of PBM binding z-score has been recorded for this entry: `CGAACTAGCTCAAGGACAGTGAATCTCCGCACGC`
Result: -0.255
